All figures here come from patent US20120083522A1.

Test system: human Factor XI mRNA
protocol notes: Dose-dependent inhibition in HepG2 cells, lipofectin (Example 5)
Assay type: cell-based
test settings: 75 nM, 16 hours
parameter measured: percent inhibition of human Factor XI mRNA, relative to untreated control cells (%)
Output spec: scalar in %, unitless text.

Find percent inhibition of human Factor XI mRNA, relative to untreated control cells for 416838 (antisense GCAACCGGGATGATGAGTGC; 5-10-5 gapmer, wing sugar chemistry not given here, further chemistry not given here) [compound 416838] on human Factor XI mRNA and write it down. 83

State measured percent inhibition of human Factor XI mRNA, relative to untreated control cells of the substance 417002 (antisense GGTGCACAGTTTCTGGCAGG; 2-13-5 gapmer, wing sugar chemistry not given here, further chemistry not given here) [compound 417002] with human Factor XI mRNA. 84

Quote percent inhibition of human Factor XI mRNA, relative to untreated control cells with test system human Factor XI mRNA for 416999 (antisense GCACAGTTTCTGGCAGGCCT; 2-13-5 gapmer, wing sugar chemistry not given here, further chemistry not given here) [compound 416999] 80

Param request: percent inhibition of human Factor XI mRNA, relative to untreated control cells | system human Factor XI mRNA | item 416825 (antisense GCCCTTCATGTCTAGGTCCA; 5-10-5 gapmer, wing sugar chemistry not given here, further chemistry not given here) [compound 416825] 89

Provide percent inhibition of human Factor XI mRNA, relative to untreated control cells, recorded with human Factor XI mRNA, of 416850 (antisense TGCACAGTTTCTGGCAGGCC; 5-10-5 gapmer, wing sugar chemistry not given here, further chemistry not given here) [compound 416850] 77

Quote human Factor XI mRNA percent inhibition of human Factor XI mRNA, relative to untreated control cells for entry 416858 (antisense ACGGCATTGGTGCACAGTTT; 5-10-5 gapmer, wing sugar chemistry not given here, further chemistry not given here) [compound 416858] . 77

Look up human Factor XI mRNA data: percent inhibition of human Factor XI mRNA, relative to untreated control cells of 417003 (antisense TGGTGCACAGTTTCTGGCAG; 2-13-5 gapmer, wing sugar chemistry not given here, further chemistry not given here) [compound 417003] , then report it. 82

Lab note: human Factor XI mRNA assay, enter percent inhibition of human Factor XI mRNA, relative to untreated control cells for 416892 (antisense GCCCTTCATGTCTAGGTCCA; 3-14-3 chimeric gapmer, wing sugar chemistry not given here, further chemistry not given here) [compound 416892] here 93

// fetch percent inhibition of human Factor XI mRNA, relative to untreated control cells; item: 416864 (antisense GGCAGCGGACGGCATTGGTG; 5-10-5 gapmer, wing sugar chemistry not given here, further chemistry not given here) [compound 416864] ; system: human Factor XI mRNA 80

Using human Factor XI mRNA as the test system, report measured percent inhibition of human Factor XI mRNA, relative to untreated control cells of 416925 (antisense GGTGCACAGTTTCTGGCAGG; 3-14-3 chimeric gapmer, wing sugar chemistry not given here, further chemistry not given here) [compound 416925] . 72

State the measured percent inhibition of human Factor XI mRNA, relative to untreated control cells (human Factor XI mRNA) of 416826 (antisense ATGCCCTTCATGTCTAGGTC; 5-10-5 gapmer, wing sugar chemistry not given here, further chemistry not given here) [compound 416826] 90
